# measurement target: Inosine-5'-monophosphate dehydrogenase 2 (Homo sapiens)
# protocol: Inhibition of human IMPDH 2
Entries and their Ki

| molecule | Ki |
| --- | --- |
| COc1c(C)c2c(c(O)c1CCC(C)CCC(=O)NO)C(=O)OC2 (centres undefined) | 540 nM |
| COc1cc(NC(=O)CCCCCCC(=O)NO)ccc1-c1cnco1 | 1700 nM |
| COc1c(C)c2c(c(O)c1C/C=C(\C)CCC(=O)Nc1ccccc1N)C(=O)OC2 | 650 nM |
| COc1c(C)c2c(c(O)c1C/C=C(\C)CCC(=O)NO)C(=O)OC2 [MYCOPHENOLIC HYDROXAMIC ACID] | 30 nM |

====

pKi: −log10 of the molar value.
// endpoint pKi / system Inosine-5'-monophosphate dehydrogenase 1 (Homo sapiens, UniProt P20839)

| compound | pKi |
| --- | --- |
| COc1cc(NC(=O)CCCCCCC(=O)NO)ccc1-c1cnco1 | 5.30 |
| COc1c(C)c2c(c(O)c1CCC(C)CCC(=O)NO)C(=O)OC2 (centres undefined) | 5.68 |
| COc1c(C)c2c(c(O)c1C/C=C(\C)CCC(=O)NO)C(=O)OC2 [MYCOPHENOLIC HYDROXAMIC ACID] | 7.15 |
| COc1c(C)c2c(c(O)c1C/C=C(\C)CCCC(=O)NO)C(=O)OC2 | 6.40 |

====

Entries and their log10 IC50
# measurement target: Histone deacetylase
# Assay type: protein assay, Homo sapiens
measured attribute: log10 IC50 (log10 of the value in µM)

| molecule | log10 IC50 |
| --- | --- |
| COc1cc(NC(=O)CCCCCCC(=O)NO)ccc1-c1cnco1 | -1.22 |
| COc1c(C)c2c(c(O)c1C/C=C(\C)CCC(=O)NO)C(=O)OC2 [MYCOPHENOLIC HYDROXAMIC ACID] | 0.70 |
| COc1c(C)c2c(c(O)c1C/C=C(\C)CCCC(=O)NO)C(=O)OC2 | 1.02 |
| COc1c(C)c2c(c(O)c1CCC(C)CCC(=O)NO)C(=O)OC2 (stereo unspecified) | 1.30 |
| COc1c(C)c2c(c(OC)c1C/C=C(\C)CCC(=O)NO)C(=O)OC2 | 1.15 |
